meta.source: paper PMC10816986

Provide the reported pKd of each item.
test.details: Equilibrium fluorescence titration with 2OG
Assay type: binding
condition.summary: 1 µM apoprotein, 25 °C; read-out: Dissociation constant Kd, 2OG
One number for each entry, as −log10 of the molar value.

[[record]]
molecule = "Y143A ALKBH3: ALKBH3 mutant, Tyr143 replaced with Ala (protein, UniProt Q96Q83 1-286, looked up, variant Y143A) Alpha-ketoglutarate-dependent …: MEEKRRRARVQGAWAAPVKSQAIAQPATTAKSHLHQKPGQTWKNKEHHLSDREFVFKEPQQVVRRAPEPRVIDREGVYEISLSPTGVSRVCLYPGFVDVKEADWILEQLCQDVPWKQRTGIREDITYQQPRLTAWYGELPYTASRITMEPNPHWHPVLRTLKNRIEENTGHTFNSLLCNLYRNEKDSVDWHSDDEPSLGRCPIIASLSFGATRTFEMRKKPPPEENGDYTYVERVKIPLDHGTLLIMEGATQADWQHRVPKEYHSREPRVNLTFRTVYPDPRGAPW"
assay_result = 4.28

[[record]]
molecule = "L177A ALKBH3: ALKBH3 mutant, Leu177 replaced with Ala (protein, UniProt Q96Q83 1-286, looked up, variant L177A) Alpha-ketoglutarate-dependent …: MEEKRRRARVQGAWAAPVKSQAIAQPATTAKSHLHQKPGQTWKNKEHHLSDREFVFKEPQQVVRRAPEPRVIDREGVYEISLSPTGVSRVCLYPGFVDVKEADWILEQLCQDVPWKQRTGIREDITYQQPRLTAWYGELPYTYSRITMEPNPHWHPVLRTLKNRIEENTGHTFNSLACNLYRNEKDSVDWHSDDEPSLGRCPIIASLSFGATRTFEMRKKPPPEENGDYTYVERVKIPLDHGTLLIMEGATQADWQHRVPKEYHSREPRVNLTFRTVYPDPRGAPW"
assay_result = 4.17


Lab note: next molecule to report on.
// recorded pKd for H191A ALKBH3: ALKBH3 mutant, His191 replaced with Ala (protein, UniProt Q96Q83 1-286, looked up, variant H191A) Alpha-ketoglutarate-dependent …: MEEKRRRARVQGAWAAPVKSQAIAQPATTAKSHLHQKPGQTWKNKEHHLSDREFVFKEPQQVVRRAPEPRVIDREGVYEISLSPTGVSRVCLYPGFVDVKEADWILEQLCQDVPWKQRTGIREDITYQQPRLTAWYGELPYTYSRITMEPNPHWHPVLRTLKNRIEENTGHTFNSLLCNLYRNEKDSVDWASDDEPSLGRCPIIASLSFGATRTFEMRKKPPPEENGDYTYVERVKIPLDHGTLLIMEGATQADWQHRVPKEYHSREPRVNLTFRTVYPDPRGAPW : 4.47
